- tested target: T1, cynomolgus monkey E-selectin extracellular domain with 10 His purification tail (cynomolgus monkey, UniProt P16581 22-554 (human entry))
- T1 construct: also called cynomolgus E-selectin; truncated cynomolgus monkey E-selectin
- T1 chain: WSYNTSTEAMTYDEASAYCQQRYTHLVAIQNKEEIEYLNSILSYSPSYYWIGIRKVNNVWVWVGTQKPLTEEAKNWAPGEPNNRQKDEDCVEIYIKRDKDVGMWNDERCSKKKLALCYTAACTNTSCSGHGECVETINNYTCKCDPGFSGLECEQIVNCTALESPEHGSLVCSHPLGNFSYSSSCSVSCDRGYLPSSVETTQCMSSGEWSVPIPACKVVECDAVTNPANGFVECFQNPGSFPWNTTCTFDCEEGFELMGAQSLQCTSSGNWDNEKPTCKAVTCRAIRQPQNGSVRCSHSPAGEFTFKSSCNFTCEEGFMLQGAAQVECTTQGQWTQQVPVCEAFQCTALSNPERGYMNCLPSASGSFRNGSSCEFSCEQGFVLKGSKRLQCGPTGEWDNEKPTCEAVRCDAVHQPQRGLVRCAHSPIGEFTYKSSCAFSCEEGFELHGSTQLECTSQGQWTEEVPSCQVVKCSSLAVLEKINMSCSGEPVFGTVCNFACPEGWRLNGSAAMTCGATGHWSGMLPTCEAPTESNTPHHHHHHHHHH
- assay name: SPR, antibody captured, E-selectin analyte
endpoint label: koff (s⁻¹)
Report the value in s⁻¹ with no unit label.

# binder, koff [s⁻¹]
records = [
    ("anti-E-selectin antibody 0159 chimera (antibody, human IgG1, kappa, V domains shown, rat VH/VL on effector-null human IgG1 and human kappa) VH: EVQLQQSGAELGKPGTSVKLSCKVSGYNIRSTYMHWVSQRPGKGLEWIGRIDPANGNTIYAEKFKRKATLTADTSSNTAYMQLSQLKSDDRAIYFCAMEVRVSFEYWGQGVMVTVSS VL: DIQMTQSPSFLSASVGDRVTINCKASQNINKYLDWYQQKLGEGPKLLIYYTNNLHTGIPSRFSGSGSGTDFTLTISSLQPEDVATYFCLQHDSGYTFGAGTKLELKR", 0.0374),
    ("anti-E-selectin antibody 0164 chimera (antibody, human IgG1, kappa, V domains shown, rat VH/VL on effector-null human IgG1 and human kappa) VH: EVQLQQSGAEFGKPGTSVKLSCKVSGYNIRSSYMHWVNQRPGKGLEWIGRIDPANGNTIYAEKFKIKAILTADSSSNTAYMQLSQLKSDDTAIYFCAMDLYSTSEYWGQGVMVTVSS VL: DIQMTQSPSFLSASVGDRVTINCKTSQNINRYLNWYQQKLGEAPKLLIYNANSLQTGIPSRFSASGSGTDFTLTINSLQPEDVATYFCLQDNSWPLTFGSGTKLEIKR", 0.012),
]

# evaluate next
Per the records, this binder ( anti-E-selectin antibody 0039 chimera (antibody, human IgG1, kappa, V domains shown, rat VH/VL on effector-null human IgG1 and human kappa) VH: QVQLKETGPGLVQPTQTLSITCTVSGFSLTGYYMQWVRQTPGKGLEWMGFIRSSGSTEYNSEFKSRLSISRDTSKNQVFLKMNSLKTEDTGVYYCARCPYKYSSFVYVGVMDAWGQGAPVTVSS VL: EIVMTQSPTSMSTSIGERVTLNCKASQTVGINVDWYQQTPGQPPKLLIYGASNRHTGVPDRFTGSGFGRDFTLTISNVEAEDLAVYCCLQYGSIPHTFGPGTKLELKR ) has koff equal to 0.00377
